The reported measurements were obtained from patent US9896443B2.

# pIC50 annotations
Molecular target: recombinant perforin (UniProt P10820)
Sequence (P10820 whole entry): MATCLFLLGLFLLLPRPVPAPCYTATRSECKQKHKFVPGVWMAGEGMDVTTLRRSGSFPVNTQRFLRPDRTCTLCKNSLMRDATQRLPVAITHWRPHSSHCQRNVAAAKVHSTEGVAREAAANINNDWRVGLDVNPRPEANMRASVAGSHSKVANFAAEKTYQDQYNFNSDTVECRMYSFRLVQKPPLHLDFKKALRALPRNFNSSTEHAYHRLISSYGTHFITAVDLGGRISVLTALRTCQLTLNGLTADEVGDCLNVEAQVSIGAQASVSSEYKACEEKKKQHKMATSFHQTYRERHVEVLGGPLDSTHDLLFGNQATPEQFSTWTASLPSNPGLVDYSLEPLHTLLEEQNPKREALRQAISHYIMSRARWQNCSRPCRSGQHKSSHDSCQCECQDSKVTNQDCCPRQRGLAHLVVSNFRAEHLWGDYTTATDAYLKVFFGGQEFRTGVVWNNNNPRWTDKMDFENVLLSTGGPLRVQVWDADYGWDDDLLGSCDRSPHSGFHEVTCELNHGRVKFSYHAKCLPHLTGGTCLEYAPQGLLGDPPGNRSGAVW
Assay type: cell-based
Settings: lysis of Jurkat T lymphoma cells by recombinant perforin, 0.1% BSA, 30 min pre-incubation, 4 hours at 37° C.; read-out: Jurkat IC50
pIC50: −log10 of the molar value.
quantityName: pIC50

> print(dat)
                                   compound  quantityname  valuemeasured
1  CN1Cc2cc(-c3ccc(-c4cncc(NS(=O)(=O)c5cccnc5)c4)s3)ccc2C1=O         pIC50           4.82
2  CN1Cc2cc(-c3ccc(-c4cncc(NS(=O)(=O)c5ccc(-c6cnco6)cc5)c4)s3)ccc2C1=O         pIC50           5.52
3  CN1Cc2cc(-c3ccc(-c4ccc(OC(F)(F)F)c(NS(=O)(=O)c5ccccn5)c4)s3)ccc2C1=O [Compound 63.Na]         pIC50           4.71
4  CN1Cc2cc(-c3ccc(-c4cncc(NC(=S)NC(=O)c5ccc(F)cc5)c4)s3)ccc2C1=O         pIC50           4.80

====

Molecular target: recombinant perforin (UniProt P10820)
Assay type: cell-based
Settings: read-out: Jurkat IC50; lysis of Jurkat T lymphoma cells by recombinant perforin, 0.1% BSA, 30 min pre-incubation, 4 hours at 37° C.
pIC50: −log10 of the molar value.
quantityName: pIC50

> print(dat)
                                givensmiles                                    tgt  valuemeasured
1  CN1Cc2cc(-c3ncc(-c4cncc(NS(=O)(=O)c5ccc(F)cc5F)c4)s3)ccc2C1=O  recombinant perforin (UniProt P10820)           4.73
2  CN1Cc2cc(-c3ccc(-c4cnc(N)c(S(=O)(=O)Nc5ccc(F)cc5F)c4)s3)ccc2C1=O  recombinant perforin (UniProt P10820)           5.33
3  CC(=O)c1cn(C)c2ccc(-c3ccc(-c4cncc(NS(=O)(=O)c5ccc(F)cc5F)c4)s3)cc12  recombinant perforin (UniProt P10820)           4.95
4  CN1Cc2ccc(-c3ccc(-c4cncc(NS(=O)(=O)c5ccc(F)cc5F)c4)s3)cc2C1=O  recombinant perforin (UniProt P10820)           4.98

====

# IC50 annotations
Biological target: recombinant perforin (UniProt P10820)
Format: cell-based
Conditions: lysis of Jurkat T lymphoma cells by recombinant perforin, 0.1% BSA, 30 min pre-incubation, 4 hours at 37° C.; read-out: Jurkat IC50
quantityName: IC50

> print(dat)
                                    molecule                                    tgt  valuemeasured
 1  Cc1ccc(NS(=O)(=O)c2ccccn2)cc1-c1ccc(-c2ccc3c(c2)CN(C)C3=O)s1  recombinant perforin (UniProt P10820)        15.4 µM
 2  CN1Cc2cc(-c3ccc(-c4cncc(NS(=O)(=O)c5ccccc5F)c4)s3)ccc2C1=O  recombinant perforin (UniProt P10820)        2.03 µM
 3  CN1Cc2cc(-c3ccc(-c4cncc(NS(=O)(=O)c5ccc(F)c(C(F)(F)F)c5)c4)s3)ccc2C1=O  recombinant perforin (UniProt P10820)        3.75 µM
 4  CN1Cc2cc(-c3ccc(-c4ccnc(NS(=O)(=O)c5ccc(F)cc5F)c4)s3)ccc2C1=O  recombinant perforin (UniProt P10820)         4.7 µM
 5  CN1Cc2cc(-c3ccc(-c4cncc(NS(=O)(=O)c5ccc([N+](=O)[O-])cc5)c4)s3)ccc2C1=O [Compound 29]  recombinant perforin (UniProt P10820)        2.74 µM
 6  CN1Cc2cc(-c3ccc(-c4cncc(NS(=O)(=O)c5ccc(Cl)c(Cl)c5)c4)s3)ccc2C1=O  recombinant perforin (UniProt P10820)        1.32 µM
 7  COC(=O)c1ccc(S(=O)(=O)Nc2cncc(-c3ccc(-c4ccc5c(c4)CN(C)C5=O)s3)c2)cc1  recombinant perforin (UniProt P10820)        8.16 µM
 8  CN1Cc2cc(-c3ccc(-c4cncc(NS(=O)(=O)c5ccc(C(=O)O)cc5)c4)s3)ccc2C1=O  recombinant perforin (UniProt P10820)        0.75 µM
 9  CN1Cc2cc(-c3ccc(-c4cncc(NS(=O)(=O)c5ccc(Cl)cc5)c4)s3)ccc2C1=O [Compound 11.Na]  recombinant perforin (UniProt P10820)        8.28 µM
10  COC(=O)c1cccc(S(=O)(=O)Nc2cncc(-c3ccc(-c4ccc5c(c4)CN(C)C5=O)s3)c2)c1  recombinant perforin (UniProt P10820)        7.77 µM
11  COc1ccccc1S(=O)(=O)Nc1cncc(-c2ccc(-c3ccc4c(c3)CN(C)C4=O)s2)c1  recombinant perforin (UniProt P10820)        14.8 µM
12  CN1Cc2cc(-c3ccc(-c4cncc(NS(=O)(=O)c5ccc([N+](=O)[O-])cc5)c4)s3)ccc2C1=O [Compound 29.Na]  recombinant perforin (UniProt P10820)        3.34 µM
13  CN1Cc2cc(-c3ccc(-c4cncc(NS(=O)(=O)c5ccccc5OC(F)(F)F)c4)s3)ccc2C1=O  recombinant perforin (UniProt P10820)        17.7 µM
14  CN1Cc2cc(-c3ccc(-c4cncc(NS(=O)(=O)c5cccc(Cl)c5)c4)s3)ccc2C1=O  recombinant perforin (UniProt P10820)        2.42 µM
15  CN1Cc2cc(-c3ccc(-c4ccc(OC(F)(F)F)c(NS(=O)(=O)c5ccccn5)c4)s3)ccc2C1=O [Compound 63]  recombinant perforin (UniProt P10820)        > 20 µM
16  Cc1cc(F)ccc1S(=O)(=O)Nc1cncc(-c2ccc(-c3ccc4c(c3)CN(C)C4=O)s2)c1  recombinant perforin (UniProt P10820)        5.53 µM
17  CN1Cc2cc(-c3ccc(-c4cncc(NS(=O)(=O)c5ccc(F)cc5)c4)s3)ccc2C1=O  recombinant perforin (UniProt P10820)        9.65 µM
18  CN1Cc2cc(-c3ccc(-c4cncc(NS(=O)(=O)c5ccc(-c6ccno6)s5)c4)s3)ccc2C1=O  recombinant perforin (UniProt P10820)         7.1 µM
19  COc1cccc(S(=O)(=O)Nc2cncc(-c3ccc(-c4ccc5c(c4)CN(C)C5=O)s3)c2)c1  recombinant perforin (UniProt P10820)        2.56 µM
20  CN1Cc2cc(-c3ccc(-c4cncc(NS(=O)(=O)c5ccccc5C#N)c4)s3)ccc2C1=O  recombinant perforin (UniProt P10820)        9.17 µM
21  COc1ncc(-c2ccc(-c3ccc4c(c3)CNC4=O)s2)cc1NS(=O)(=O)c1ccc(F)cc1F  recombinant perforin (UniProt P10820)        5.41 µM
22  CN1Cc2cc(-c3ccc(-c4cccc(NS(=O)(=O)c5ccc(F)cc5F)c4)s3)ccc2C1=O  recombinant perforin (UniProt P10820)        5.74 µM
23  CN1Cc2cc(-c3ccc(-c4cncc(NS(=O)(=O)c5ccc(Cl)cc5)c4)s3)ccc2C1=O [Compound 11]  recombinant perforin (UniProt P10820)        5.39 µM
24  CN1Cc2cc(-c3ccc(-c4cnc(Cl)c(NS(=O)(=O)c5ccc(F)cc5F)c4)s3)ccc2C1=O  recombinant perforin (UniProt P10820)        1.03 µM
25  CN1Cc2cc(-c3ccc(-c4cncc(NS(=O)(=O)c5ccc(F)cc5F)c4)nc3)ccc2C1=O  recombinant perforin (UniProt P10820)        8.17 µM
26  CN1Cc2cc(-c3ccc(-c4cncc(NS(=O)(=O)c5ccccc5[N+](=O)[O-])c4)s3)ccc2C1=O  recombinant perforin (UniProt P10820)        6.65 µM
27  CN1Cc2cc(-c3ccc(-c4cncc(NS(=O)(=O)c5ccccc5S(C)(=O)=O)c4)s3)ccc2C1=O  recombinant perforin (UniProt P10820)         6.8 µM
28  CN1Cc2cc(-c3ccc(-c4cncc(NS(=O)(=O)c5cccc(Br)c5)c4)s3)ccc2C1=O  recombinant perforin (UniProt P10820)        2.11 µM
29  CN1Cc2cc(-c3ccc(-c4cnc(F)c(NS(=O)(=O)c5ccc(F)cc5F)c4)s3)ccc2C1=O [Compound 39]  recombinant perforin (UniProt P10820)        1.99 µM
30  CN1Cc2cc(-c3ccc(-c4cncc(NS(=O)(=O)c5ccccc5C(F)(F)F)c4)s3)ccc2C1=O  recombinant perforin (UniProt P10820)        1.45 µM
